Attribution: patent US9834534B2

test system: B/Florida wt (B/Florida/4/2006); assay: microbe, parasite or virus in culture; assay type: cell-based; details: Influenza B virus, read-out: IC50 B/Florida wt
quantity-kind: IC50 (nM)
Numeric answer only, unit nM assumed.

Incoming: Check the records and state IC50 for CCOC(=O)C1=C[C@@H](OC(CC)CC)[C@H](NC(C)=O)[C@@H](N)C1 [Oseltamivir]
Outgoing: 22.6

Incoming: Check the records and state IC50 for CC(=O)NC1C(NC(=N)N)C(F)C(F)(C(=O)O)OC1[C@H](O)[C@H](O)CO (stereo partly drawn) [4-G3Feq diF SA]
Outgoing: 2

Incoming: Check the records and state IC50 for CC(=O)N[C@@H]1C(NC(=N)N)C(F)[C@](F)(C(=O)O)OC1[C@H](O)[C@H](O)CO (stereo partly drawn) [Compound 12]
Outgoing: 6.6

###

Assignment: determine reported Cytoprotective effect for the given compounds.
tested on: influenza A/Brisbane/10/2007 (H3N2); experiment: microbe, parasite or virus in culture; assay type: cell-based, influenza A virus
Numeric answer only, unit ng/mL assumed.

Incoming: Using influenza A/Brisbane/10/2007 (H3N2) as the test system, report measured Cytoprotective effect of CC(=O)N[C@@H]1C(NC(=N)N)C(F)[C@](F)(C(=O)O)OC1[C@H](O)[C@H](O)CO (stereo partly shown) .
Outgoing: 74

Incoming: Using influenza A/Brisbane/10/2007 (H3N2) as the test system, report measured Cytoprotective effect of CCNC1C(F)[C@](F)(C(=O)O)OC([C@H](O)[C@H](O)CO)[C@@H]1NC(C)=O (stereo partly shown) .
Outgoing: 61.0

Incoming: Using influenza A/Brisbane/10/2007 (H3N2) as the test system, report measured Cytoprotective effect of CC(=O)N[C@H]1[C@H]([C@H](O)[C@H](O)CO)OC(C(=O)O)=C[C@@H]1N=C(N)N [Zanamivir, reference compound] .
Outgoing: 369.9

Incoming: Using influenza A/Brisbane/10/2007 (H3N2) as the test system, report measured Cytoprotective effect of `CC(=O)N[C@@H]1[C@@H](N)[C@@H](F)[C@](F)(C(=O)O)O[C@H]1[C@H](O)[C@H](O)CO` .
Outgoing: 9.2

###

quantity-kind: pKi
// pKi here means minus log10 of the molar concentration (mol/L)

Incoming: Using influenza sialidase (subtype N9) (Influenza A virus) as the test system, report measured pKi of CC(=O)N[C@@H]1C(NCc2ccccc2)C(F)[C@](F)(C(=O)O)OC1[C@H](O)[C@H](O)CO (stereo partly shown) [C4 Bn] .
Outgoing: 5.39

###

Assignment: determine reported minimal effective concentration for the given molecules.
test system: influenza A/Brisbane/10/2007 (H3N2); test: microbe, parasite or virus in culture; assay type: cell-based, influenza A virus; settings: Influenza A virus, H3N2, MDCK, read-out: Cytoprotective effect
Numeric answer only, unit µg/mL assumed.

Incoming: Check the records and state minimal effective concentration for CC(=O)NC1C(F)[C@](F)(C(=O)O)OC([C@H](O)[C@H](O)CO)[C@@H]1NC(C)=O (stereo partly drawn)
Outgoing: 1.6

Incoming: Check the records and state minimal effective concentration for CC(=O)N[C@@H]1C(N)C(F)[C@](F)(C(N)=O)OC1[C@H](O)[C@H](O)CO (stereo partly drawn)
Outgoing: 0.118

Incoming: Check the records and state minimal effective concentration for CCNC1C(F)[C@](F)(C(=O)O)OC([C@H](O)[C@H](O)CO)[C@@H]1NC(C)=O (stereo partly drawn)
Outgoing: 0.122
